assay: small-molecule microarray binders of probe aXIP, primary screen, biochemical, NeuroSMM set, 635/667 nm fluorescence (AID 1119); conditions: higher = more signal, called active from +8 up or from −8 down;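 also: probe is the protein aXip251-270 applied at 1 µg/mL to compound-printed slides; binding of probe to printed compounds measured as 667 nm fluorescence plus signal to noise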
Activity calls are given as the source filed them.
Metric: composite Z-score

The compound listed as C=C[C@@H](OC)[C@H](OC(=O)Nc1ccc(SC)cc1)c1ccc(O)c(F)c1 has a reported composite Z-score of -0.584 (inactive)

What the record says about O=C(NCC(F)(F)F)[C@@H]1c2ccccc2C(=O)N(Cc2ccccc2C(F)(F)F)[C@H]1c1ccc(CO)cc1 : composite Z-score is 1.89 (inactive)

Memo: NCCCCCNC(=O)[C@@H]1C[C@@H]2C(=O)NCC(=O)N2[C@@H]1c1cccc(OCCO)c1 , reported composite Z-score: 0.401 (inactive)

composite Z-score reported for this compound C=CCNC(=O)[C@@H]1[C@H]2C(=O)O[C@H](c3ccccc3)[C@H](c3ccccc3)N2[C@H](c2ccc(O)cc2)[C@@]12C(=O)N(C(=O)OCCOC)c1ccc(C#CC3(O)CCCCCC3)cc12 : -0.245 (inactive)

Memo: C=CCC(OC(C)=O)[C@@H]1[C@@H](N(Cc2cc3ccccc3o2)C(=O)Cc2ccc(F)cc2)c2cc(OCCCO)ccc2N1C(=O)c1ccc2ccccc2c1 (stereo partly drawn) , reported composite Z-score: 0.749 (inactive)

composite Z-score in this record for C=CCC(OC(C)=O)[C@@H]1[C@@H](N(Cc2cccc3ccccc23)C(=O)Cc2ccc(F)cc2)c2cc(OCCCO)ccc2N1C(=O)c1ccc2ccccc2n1 (stereo partly drawn) : -0.486 (inactive)

Item: COC(=O)C(CC#Cc1ccc2c(c1)[C@]1(C(=O)N2)[C@H](C(=O)N2CCN(c3ncccn3)CC2)[C@H]2C(=O)O[C@H](c3ccccc3)[C@H](c3ccccc3)N2[C@@H]1c1ccc(OCCO)cc1)C(=O)OC | composite Z-score: -0.425 (inactive)

The compound listed as CN(C)CCCCNC(=O)[C@@H]1C[C@@H]2C(=O)N[C@@H](Cc3ccccc3)C(=O)N2[C@@H]1c1cccc(OCCO)c1 shows composite Z-score equal to 1.1 (inactive)

composite Z-score reported for this compound [N-]=[N+]=Nc1ccccc1C[C@]1(C(N)=O)N=C(c2ccc(OCCCO)cc2)O[C@H]1c1ccccc1N=[N+]=[N-] : -0.199 (inactive)

Lab note: measured composite Z-score of CCOC(=O)C[C@H]1[C@H](OC(=O)c2ccc(C(=O)c3ccccc3)cc2)[C@@H](NC(=O)Cc2ccc(OC)cc2)c2cc(OCCCO)ccc2N1C(=O)c1ccccc1 was 0.324 (inactive)

Per the record, O=C1O[C@H](c2ccccc2)[C@H](c2ccccc2)N2[C@H]1[C@@H](C(=O)Nc1nc3ccccc3s1)[C@]1(C(=O)Nc3ccc(C#CCCO)cc31)[C@H]2c1ccc(O)cc1 has composite Z-score of -0.0959 (inactive)

Looking up CCCCCCc1nc(C2CC2)cc2c1[Si](C(C)C)(C(C)C)O[C@H]2c1ccccc1 , I found its composite Z-score recorded as -0.228 (inactive)

Given item COCCOC(=O)N1C(=O)[C@@]2(c3cc(C#CC4=CCCCC4)ccc31)[C@H](C(=O)N1CCCCCCC1)[C@H]1C(=O)O[C@H](c3ccccc3)[C@H](c3ccccc3)N1[C@@H]2c1ccc(O)cc1 , the value recorded as its composite Z-score is 0.0769 (inactive)
